# TARGET: the molecule itself
# ASSAY_SUMMARY: SEC; S200 size-exclusion chromatography; 20 mM HEPES, pH 7.5, 200 mM NaCl, 0.5 mM TCEP, 10% glycerol; MBP as a size reference

PROTEIN	binding result
Gle1^(1–360 8D) (domain or fragment, human, UniProt Q53GS7 1-360, looked up, source: E. coli Rosetta, purified) MPSEGRCWETLKALRSSDKGRLCYYRDWLLRREDVLEECMSLPKLSSYSGWVVEHVLPHMQENQPLSETSPSSTSASALDQPSFVPKSPDASSAFSPASPATPNGTKGKDESQHTESMVLQSSRGIKVEGCVRMYELVHRMKGTEGLRLWQEEQERKVQALSEMASEQLKRFDEWKELKQHKEFQDLREVMEKSSREALGHQEKLKAEHRHRAKILNLKLREAEQQRVKQAEQERLRKEEGQIRLRADYADQEEMLQDSQQDDASEQHKALLKVDLAAFQTRGNQLCSLISGIIRASSESSYPTAESQAEAERADREDRDLDMNDGQEITRACEDKRRQDEEEAQVKLQEAQMQQGPEAH	binds
